Conditions: 353.15 K; 101.33 kPa; Liquid; Concentric cylinders viscometry
READOUT_NAME: viscosity (mPa·s)
Number in mPa·s, nothing else.

# lookup: viscosity of "CCC(=O)[NH+](C)C.O=S(=O)([N-]S(=O)(=O)C(F)(F)F)C(F)(F)F"
15.67

Data request, read-out viscosity, for CC(=O)[NH+](C)C.O=S(=O)([N-]S(=O)(=O)C(F)(F)F)C(F)(F)F [N,N-dimethylacetamidium bis(trifluoromethanesulfonyl)amide]
17.35

May I ask what viscosity has been recorded for CC(=O)N(C)C [N,N-dimethylethanamide] ?
0.502

For the compound shown here, CCC(=O)N(C)C [N,N-dimethylpropionamide] , give the reported viscosity.
0.504

Need viscosity, item CN(C)C=O [dimethylformamide]
0.436

* * *

Conditions: 323.15 K; 101.33 kPa; Liquid; Vibrating tube method
Think of 1000 kg/m3 as a floor: if mass density stands on it or above, it is true; beneath it, false.

Is it the case that CCC(=O)N(C)C [N,N-dimethylpropionamide] has mass density reaching or exceeding 1000 kg/m3?
false

Say whether CN(C)C=O [dimethylformamide] shows mass density of 1000 kg/m3 or more.
false

Has CC(=O)N(C)C [N,N-dimethylethanamide] a recorded mass density greater than or equal to 1000 kg/m3?
false

Is it the case that "CCC(=O)[NH+](C)C.O=S(=O)([N-]S(=O)(=O)C(F)(F)F)C(F)(F)F" has mass density reaching or exceeding 1000 kg/m3?
true

Threshold query (mass density >= 1000 kg/m3) on CC(=O)[NH+](C)C.O=S(=O)([N-]S(=O)(=O)C(F)(F)F)C(F)(F)F [N,N-dimethylacetamidium bis(trifluoromethanesulfonyl)amide]
true

* * *

Settings: 278.15 K; 101.33 kPa; Liquid; Vibrating tube method
READOUT_NAME: mass density (kg/m3)
Express the result in kg/m3 but write the number alone.

For the molecule "CCC(=O)[NH+](C)C.O=S(=O)([N-]S(=O)(=O)C(F)(F)F)C(F)(F)F" , what mass density is on record?
1541.52

mass density lookup needed for CC(=O)N(C)C [N,N-dimethylethanamide] , thanks.
954.56

Please look up its mass density: CCC(=O)N(C)C [N,N-dimethylpropionamide]
938.02

Which mass density value belongs to CN(C)C=O [dimethylformamide] ?
962.83

* * *

Conditions: 283.15 K; 101.33 kPa; Liquid; Concentric cylinders viscometry
Exercise: state measured viscosity for each of the compounds provided.
The reply should contain only the number, in mPa·s.

# get_value(readout='viscosity', item= CN(C)C=O [dimethylformamide] )
0.979

Recorded viscosity of CC(=O)N(C)C [N,N-dimethylethanamide] , please.
1.19

Form field: reported viscosity of "CCC(=O)[NH+](C)C.O=S(=O)([N-]S(=O)(=O)C(F)(F)F)C(F)(F)F"
284.2

Which measured viscosity value corresponds to CCC(=O)N(C)C [N,N-dimethylpropionamide] ?
1.21

* * *

Settings: 343.15 K; 101.33 kPa; Liquid; Concentric cylinders viscometry
Short version: viscosity at least 0.6 mPa·s is label 1, less is label 0.

Is viscosity for CC(=O)[NH+](C)C.O=S(=O)([N-]S(=O)(=O)C(F)(F)F)C(F)(F)F [N,N-dimethylacetamidium bis(trifluoromethanesulfonyl)amide] at or above 0.6 mPa·s?
label 1

// inclusive: viscosity at least 0.6 mPa·s? input: CCC(=O)N(C)C [N,N-dimethylpropionamide]
label 0

Answer whether viscosity of CN(C)C=O [dimethylformamide] is greater than or equal to 0.6 mPa·s.
label 0

Hi, just wondering whether CC(=O)N(C)C [N,N-dimethylethanamide] shows viscosity of 0.6 mPa·s or higher.
label 0

Assess whether reported viscosity for "CCC(=O)[NH+](C)C.O=S(=O)([N-]S(=O)(=O)C(F)(F)F)C(F)(F)F" sits at 0.6 mPa·s or higher.
label 1
